Assay System: EGFR (L858R T790M C797S) (Homo sapiens, UniProt P00533, C797S/L858R/T790M)
Construct: purchased SignalChem E10-122VG
Sequence (P00533 25-1210 T790M/C797S/L858R): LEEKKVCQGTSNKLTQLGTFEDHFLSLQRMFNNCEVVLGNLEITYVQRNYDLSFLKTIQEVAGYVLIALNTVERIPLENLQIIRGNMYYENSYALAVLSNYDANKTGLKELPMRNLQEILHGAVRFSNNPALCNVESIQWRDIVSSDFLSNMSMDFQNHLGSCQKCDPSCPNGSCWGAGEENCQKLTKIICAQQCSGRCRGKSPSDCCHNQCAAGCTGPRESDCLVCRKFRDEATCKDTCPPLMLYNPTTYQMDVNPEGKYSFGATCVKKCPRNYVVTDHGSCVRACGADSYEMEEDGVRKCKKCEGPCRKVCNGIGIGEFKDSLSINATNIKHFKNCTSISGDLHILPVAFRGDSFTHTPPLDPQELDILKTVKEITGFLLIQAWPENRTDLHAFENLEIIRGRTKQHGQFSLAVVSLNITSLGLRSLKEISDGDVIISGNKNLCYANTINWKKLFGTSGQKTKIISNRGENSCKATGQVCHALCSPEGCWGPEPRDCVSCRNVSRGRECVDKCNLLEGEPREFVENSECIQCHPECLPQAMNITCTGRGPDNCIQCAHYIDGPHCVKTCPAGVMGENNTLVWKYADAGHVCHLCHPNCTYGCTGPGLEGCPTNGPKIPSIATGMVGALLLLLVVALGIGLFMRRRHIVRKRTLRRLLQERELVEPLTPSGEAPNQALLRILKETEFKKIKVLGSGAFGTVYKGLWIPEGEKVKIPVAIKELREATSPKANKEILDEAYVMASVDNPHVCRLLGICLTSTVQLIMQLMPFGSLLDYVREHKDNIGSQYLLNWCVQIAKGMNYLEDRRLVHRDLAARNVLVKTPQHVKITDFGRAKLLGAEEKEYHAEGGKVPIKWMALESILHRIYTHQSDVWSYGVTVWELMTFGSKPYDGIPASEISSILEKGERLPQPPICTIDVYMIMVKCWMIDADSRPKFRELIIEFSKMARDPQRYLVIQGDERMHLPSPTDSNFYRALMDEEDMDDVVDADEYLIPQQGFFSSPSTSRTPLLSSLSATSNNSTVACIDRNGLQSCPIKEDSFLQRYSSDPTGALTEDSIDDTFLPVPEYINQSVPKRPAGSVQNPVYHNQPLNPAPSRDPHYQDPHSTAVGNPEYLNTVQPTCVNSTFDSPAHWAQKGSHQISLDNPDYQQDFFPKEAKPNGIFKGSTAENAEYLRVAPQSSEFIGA
Test Method Notes: Biochemical EGFR inhibition assay (Caliper mobility shift), EGFR LRTMCS
Recorded Conditions: LRTMCS (PH) IC50 (nM) @ 1 mM ATP (Num), EGFR LRTMCS mutant
Structures can show the parent of a compound that is named as a salt.
Reported Endpoint: IC50

# Compound, IC50
measured = [
    ("CC(C)c1cnc(N2CC(F)C2)c2cnc(Nc3ccnc(N4CC[C@@H](O)[C@@](C)(F)C4)n3)cc12", "< 15 nM"),
    ("C[C@@H]1[C@H](F)CN1c1ncc([C@@H](C)CO)c2cc(Nc3ccnc(N4CC[C@@H](O)[C@@](C)(F)C4)n3)ncc12 (single isomer, unassigned) [Example 209]", "15 to 20 nM"),
    ("CC(C)c1cnc(N2CC(n3cncn3)C2)c2cnc(Nc3ccnc(N4CC[C@@H](O)[C@@](C)(F)C4)n3)cc12", "< 15 nM"),
    ("COC[C@@H](C)c1cnc(N2CC[C@H]2C)c2cnc(Nc3ccnc(N4CC[C@@H](O)[C@@](C)(F)C4)n3)cc12 (single isomer, unassigned) [Example 215]", "< 15 nM"),
    ("CC(C)c1cnc(N2C[C@H](O)[C@H]2C)c2cnc(Nc3ccnc(N4C[C@@H](F)[C@@H](O)[C@](C)(F)C4)n3)cc12 (single isomer, unassigned)", "< 15 nM"),
]

Qu. Param item = CC(C)c1cnc(N2C[C@H](O)[C@H]2C)c2cnc(Nc3ccnc(N4CC[C@@](C)(O)[C@@H](F)C4)n3)cc12 (single isomer, unassigned) [Example 172] ; retrieve measured IC50.
Ans. 15 to 20 nM

Qu. Param item = CC(C)c1cnc(-c2cnn(C)c2CN(C)C)c2cnc(Nc3ccnc(N4CC[C@@H](O)[C@@](C)(F)C4)n3)cc12 [Example 13, trifluoroacetate] ; retrieve measured IC50.
Ans. 30 to 100 nM

Qu. Param item = CC(C)c1cnc(N2CC(CC(=O)N(C)C)C2)c2cnc(Nc3ccnc(N4CC[C@@H](O)[C@@](C)(F)C4)n3)cc12 ; retrieve measured IC50.
Ans. 20 to 30 nM

====

Assay System: EGFR (L858R T790M C797S) (Homo sapiens, UniProt P00533, C797S/L858R/T790M)
Construct: purchased SignalChem E10-122VG
Test Method Notes: Biochemical EGFR inhibition assay (Caliper mobility shift), EGFR LRTMCS
Recorded Conditions: LRTMCS (PH) IC50 (nM) @ 1 mM ATP (Num), EGFR LRTMCS mutant
Structures can show the parent of a compound that is named as a salt.
Reported Endpoint: IC50

Use these answered entries as a reference point.
# Compound, Reported Measurement
records = [
    ("CC(C)c1cnc(N2CCC23CN(C)C3)c2cnc(Nc3ccnc(N4CC[C@@H](O)[C@@](C)(F)C4)n3)cc12 [Example 192, trifluoroacetate]", "< 15 nM"),
    ("CC(C)c1cnc(N2CC(CNS(C)(=O)=O)C2)c2cnc(Nc3ccnc(N4CC[C@@H](O)[C@@](C)(F)C4)n3)cc12", "< 15 nM"),
    ("Cc1nc(-c2cnc(C(C)C)c3cc(Nc4ccnc(N5CC[C@@H](O)[C@@](C)(F)C5)n4)ncc23)no1", "20 to 30 nM"),
    ("CC(C)c1cnc(N2CC(S(C)(=O)=O)C2)c2cnc(Nc3ccnc(N4CC[C@@H](O)[C@@](C)(F)C4)n3)cc12", "< 15 nM"),
    ("CC(C)c1cnc(N2CC(C)(C(=O)N(C)C)C2)c2cnc(Nc3ccnc(N4CC[C@@H](O)[C@@](C)(F)C4)n3)cc12", "< 15 nM"),
]

Qu. Param item = C[C@@H]1CCN1c1ncc([C@@H]2CCOC2)c2cc(Nc3ccnc(N4CC[C@@H](O)[C@@H](F)C4)n3)ncc12 (single isomer, unassigned) ; retrieve measured IC50.
Ans. < 15 nM

====

Assay System: intracellular phosphorylation of EGFR in NCI-H1975 cell line that harbors the EGFR L858R T790M mutations (Homo sapiens, UniProt P00533, L858R/T790M)
Construct: NCI-H1975 cell line that harbors the EGFR L858R T790M mutations (ATCC, CRL-5908); host or cells: NCI-H1975
Sequence (P00533 25-1210 T790M/L858R): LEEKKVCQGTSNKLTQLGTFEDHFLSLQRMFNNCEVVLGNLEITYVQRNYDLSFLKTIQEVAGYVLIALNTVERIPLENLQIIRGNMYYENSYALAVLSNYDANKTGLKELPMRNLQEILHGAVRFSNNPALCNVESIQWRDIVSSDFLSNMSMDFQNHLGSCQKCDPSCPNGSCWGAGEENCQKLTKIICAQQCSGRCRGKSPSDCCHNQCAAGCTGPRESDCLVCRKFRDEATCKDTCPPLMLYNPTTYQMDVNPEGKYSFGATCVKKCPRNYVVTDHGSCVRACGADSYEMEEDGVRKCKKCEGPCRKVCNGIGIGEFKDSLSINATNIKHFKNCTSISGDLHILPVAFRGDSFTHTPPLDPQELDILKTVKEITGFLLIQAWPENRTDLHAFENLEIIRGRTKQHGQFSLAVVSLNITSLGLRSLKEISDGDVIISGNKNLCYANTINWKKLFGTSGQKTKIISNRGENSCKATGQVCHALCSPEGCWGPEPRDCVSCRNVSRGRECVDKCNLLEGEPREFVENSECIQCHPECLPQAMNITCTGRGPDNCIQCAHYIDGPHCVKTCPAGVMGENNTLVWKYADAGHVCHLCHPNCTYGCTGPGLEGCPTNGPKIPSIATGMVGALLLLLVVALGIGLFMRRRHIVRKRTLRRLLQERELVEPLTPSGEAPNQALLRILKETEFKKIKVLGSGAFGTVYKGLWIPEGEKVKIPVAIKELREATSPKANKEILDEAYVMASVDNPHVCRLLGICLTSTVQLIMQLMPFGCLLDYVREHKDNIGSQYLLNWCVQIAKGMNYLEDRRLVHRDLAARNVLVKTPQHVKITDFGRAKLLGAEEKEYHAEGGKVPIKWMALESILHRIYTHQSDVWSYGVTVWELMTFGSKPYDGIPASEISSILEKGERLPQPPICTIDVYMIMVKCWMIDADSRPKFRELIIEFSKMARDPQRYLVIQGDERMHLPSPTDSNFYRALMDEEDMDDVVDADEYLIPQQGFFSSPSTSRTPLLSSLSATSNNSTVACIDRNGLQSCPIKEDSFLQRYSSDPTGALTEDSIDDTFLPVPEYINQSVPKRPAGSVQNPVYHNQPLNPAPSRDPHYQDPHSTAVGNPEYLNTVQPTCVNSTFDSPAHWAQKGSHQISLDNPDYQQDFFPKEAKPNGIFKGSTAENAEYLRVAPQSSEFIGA
Test Method Notes: NCI-H1975 pEGFR AlphaLISA assay
Assay type: cell-based
Recorded Conditions: NCI-H1975 cells (EGFR L858R T790M), p-EGFR (Tyr1068), 4-5 hours incubation; read-out: Ext pEGFR H1975 GMean IC50 (nM) Protocol: @Pharmaron AlphaLISA (Num)
Reported Endpoint: IC50

Use these answered entries as a reference point.
# Compound, Reported Endpoint, Reported Measurement
data = [
    ("CC(C)c1nnc(N2CC[C@@H]2C)c2cnc(Nc3ccnc(N4CC[C@@H](O)[C@@](C)(F)C4)n3)cc12 (single isomer, unassigned) [Example 206]", "IC50", "20 to 30 nM"),
    ("C[C@@H]1CCN1c1ncc([C@@H](C)C(=O)N(C)C)c2cc(Nc3ccnc(N4CC[C@@H](O)[C@@](C)(F)C4)n3)ncc12 (single isomer, unassigned) [Example 185]", "IC50", "> 50 nM"),
]

Switching to the query record.
Qu. Param item = CO[C@@H]1CCN(c2nccc(Nc3cc4c(C(C)C)cnc(N5C[C@H](OCCN)[C@H]5C)c4cn3)n2)C[C@@H]1F [Example 163] ; retrieve measured IC50.
Ans. 20 to 30 nM

====

The following compounds are shown together with reported IC50 values.
Assay System: EGFR (L858R T790M C797S) (Homo sapiens, UniProt P00533, C797S/L858R/T790M)
Construct: purchased SignalChem E10-122VG
Test Method Notes: Biochemical EGFR inhibition assay (Caliper mobility shift), EGFR LRTMCS
Recorded Conditions: LRTMCS (PH) IC50 (nM) @ 1 mM ATP (Num), EGFR LRTMCS mutant
Procedure: Reactions proceeded until between 10% to 20% total peptides were phosphorylated at room temperature (25° C.) and were terminated with 35 mM 2,2′,2″,2′″-(ethane-1,2-diyldinitrilo)tetraacetic acid (EDTA). Product was detected using the Caliper mobility shift detection method where the phosphorylated peptide (product) and substrate were electrophoretically separated and measured. Percent activity was plotted against log concentration of compound and points to generate an apparent IC50.

Qu. Param item = CO[C@@H]1CCN(c2nccc(Nc3cc4c(C(C)C)cnc(N5C[C@H](O)[C@H]5C)c4cn3)n2)C[C@@H]1O (single isomer, unassigned) ; retrieve measured IC50.
Ans. < 15 nM

====

Assay System: intracellular phosphorylation of EGFR in NCI-H1975 cell line that harbors the EGFR L858R T790M mutations (Homo sapiens, UniProt P00533, L858R/T790M)
Construct: NCI-H1975 cell line that harbors the EGFR L858R T790M mutations (ATCC, CRL-5908); host or cells: NCI-H1975
Test Method Notes: NCI-H1975 pEGFR AlphaLISA assay
Type: cell-based
Recorded Conditions: NCI-H1975 cells (EGFR L858R T790M), p-EGFR (Tyr1068), 4-5 hours incubation; read-out: Ext pEGFR H1975 GMean IC50 (nM) Protocol: @Pharmaron AlphaLISA (Num)
Reported Endpoint: IC50

# Molecule, IC50
measured = [
    ("CC(C)c1cnc(N2CCC23CN(C)C3)c2cnc(Nc3ccnc(N4CCC5(CCO5)CC4)n3)cc12 [Example 116]", "> 50 nM"),
    ("CO[C@H]1CN(c2ncc([C@@H](C)CO)c3cc(Nc4ccnc(N5CC[C@@H](O)[C@@](C)(F)C5)n4)ncc23)[C@@H]1C (single isomer, unassigned) [Example 212]", "10 to 20 nM"),
]

Switching to the query record.
Qu. Param item = CC(C)c1cnc(-c2cnn(C)c2)c2cnc(Nc3ccnc(N4CC[C@@H](O)[C@@](C)(F)C4)n3)cc12 [Example 9] ; retrieve measured IC50.
Ans. 30 to 50 nM

====

Assay System: EGFR (L858R T790M C797S) (Homo sapiens, UniProt P00533, C797S/L858R/T790M)
Construct: purchased SignalChem E10-122VG
Test Method Notes: Biochemical EGFR inhibition assay (Caliper mobility shift), EGFR LRTMCS
Recorded Conditions: LRTMCS (PH) IC50 (nM) @ 1 mM ATP (Num), EGFR LRTMCS mutant
Reported Endpoint: IC50

Use these answered entries as a reference point.
# Compound, Reported Endpoint, Reported Measurement
measured = [
    ("CC(C)c1cnc(N2C[C@](C)(O)[C@H]2C)c2cnc(Nc3ccnc(N4CC[C@@H](O)[C@@](C)(F)C4)n3)cc12", "IC50", "15 to 20 nM"),
    ("CC(C)c1cnc(N2CC[C@@H](CS(C)(=O)=O)C2)c2cnc(Nc3ccnc(N4CC[C@@H](O)[C@@](C)(F)C4)n3)cc12 (single isomer, unassigned)", "IC50", "< 15 nM"),
    ("COCC1CN(c2ncc(C(C)C)c3cc(Nc4ccnc(N5CC[C@@H](O)[C@@](C)(F)C5)n4)ncc23)C1", "IC50", "20 to 30 nM"),
    ("CC(C)c1ccc(N2CC(n3ccnn3)C2)c2cnc(Nc3ccnc(N4CC[C@@H](O)[C@@](C)(F)C4)n3)cc12", "IC50", "< 15 nM"),
    ("CNC[C@@H]1CCCN1c1ncc(C(C)C)c2cc(Nc3ccnc(N4CC[C@@H](O)[C@@](C)(F)C4)n3)ncc12", "IC50", "< 15 nM"),
    ("CC(C)c1cnc(N2CCCC2)c2cnc(Nc3ccnc(N4CC[C@@H](O)[C@@H](F)C4)n3)cc12", "IC50", "20 to 30 nM"),
    ("CC(C)c1ncc(-c2cnn(C)c2)c2cnc(Nc3ccnc(N4CC[C@@H](O)[C@@](C)(F)C4)n3)cc12", "IC50", "< 15 nM"),
    ("CC(C)c1ccc(N2CC(c3nnco3)C2)c2cnc(Nc3ccnc(N4CC[C@@H](O)[C@@](C)(F)C4)n3)cc12", "IC50", "< 15 nM"),
]

Qu. Param item = CC(C)c1cnc(N2CCC23CNC3)c2cnc(Nc3ccnc(N4CC[C@@H](O)[C@@](C)(F)C4)n3)cc12 ; retrieve measured IC50.
Ans. < 15 nM
